# Tested on: human SMAD7 mRNA
# assay-overview: Dose-dependent inhibition of human SMAD7 mRNA expression in Hep3B cells (Example 3, Study 1 and 2)
# Type: cell-based
# condition-info: electroporation, Study 2 (740-20000 nM)
Strand notation (5' to 3'): a small letter for the sugar, then the base; units joined by * are phosphorothioate-linked, units joined directly phosphodiester-linked; [ ] holds rarer units or linkages, { } end groups; capitals alone tell only the bases. k = constrained ethyl (cEt); [5mC] = 5-methylcytosine; d = 2'-deoxy (DNA)
assay-metric: IC50 (µM)
Give bare numbers, in µM.

Form field IC50, entry 799671 (antisense kA*kG*kG*dT*dA*dT*dT*dT*dT*dT*dG*dA*dA*kG*kG*k[5mC]) [compound 799671] : 2

# map each substance to its IC50
1. 829994 (GGAGGCAGGGCCGCGA; 3-10-3 cEt gapmer, further chemistry not given here) [compound 829994]
2. 799365 (k[5mC]*kT*k[5mC]*d[5mC]*dG*dA*dG*dT*dT*dA*dT*d[5mC]*d[5mC]*k[5mC]*k[5mC]*kA; antisense) [compound 799365]

1. 1
2. 4
